measured_target: AGTR1 (Homo sapiens)
Construct: host or cells: Pathunter CHO-K1 AGTR1 β-arrestin cell line (CHO-K1)
Sequence (P30556 1-359): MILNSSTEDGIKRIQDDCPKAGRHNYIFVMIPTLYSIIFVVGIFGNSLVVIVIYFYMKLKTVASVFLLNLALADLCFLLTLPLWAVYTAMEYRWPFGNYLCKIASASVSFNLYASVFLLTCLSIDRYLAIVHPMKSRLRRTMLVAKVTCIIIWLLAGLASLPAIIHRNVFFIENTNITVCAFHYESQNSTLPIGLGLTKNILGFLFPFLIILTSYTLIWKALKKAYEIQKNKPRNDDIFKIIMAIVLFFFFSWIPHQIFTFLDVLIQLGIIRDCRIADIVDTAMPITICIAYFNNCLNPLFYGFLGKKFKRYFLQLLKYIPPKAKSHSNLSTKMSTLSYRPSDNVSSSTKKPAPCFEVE
assay_info: DiscoveRx IP1 accumulation assay (HTRF), agonist mode, Pathunter CHO-K1 AGTR1 β-arrestin cell line
Assay type: cell-based
readout_type: IP-1 Ymax (%)
Record the result as a number with its unit.

As a guide, the following entries are already answered.
# molecule, result
measured = [
    ("CCc1nc2c(C)cc(C)nc2n1Cc1ccc(-c2cc(-c3cn(CC)nn3)ccc2-c2nnn[nH]2)cc1", "18.8%"),
    ("CCc1nc2c(C)cc(C)nc2n1Cc1ccc(-c2cc(N3CC(C)(C)c4ccccc43)ccc2-c2nn[nH]n2)cc1", "6.6%"),
    ("CCCCC1=NC2(CCOC2)C(=O)N1Cc1ccc(-c2cc(-c3cccc(C)c3)ccc2-c2nnn[nH]2)cc1 (single isomer, unassigned) [Example 153]", "6.0%"),
    ("CC1=NC2(CCCC2)C(=O)N1Cc1ccc(-c2cc(-c3ccccc3)ccc2-c2nn[nH]n2)cc1", "9.0%"),
    ("CCCCC1=NC2(CCCC2)C(=O)N1Cc1ccc(-c2cc(-c3cncc(C)c3)ccc2-c2nn[nH]n2)cc1", "2.0%"),
    ("CCCCC1=NC2(CCCC2)C(=O)N1Cc1ccc(-c2cc(N3CC4(CC4)c4ccccc43)ccc2-c2nn[nH]n2)cc1", "12.8%"),
    ("CCc1nc2c(C)cc(C)nc2n1Cc1ccc(-c2cc(Nc3ccc(F)cc3)ccc2-c2nn[nH]n2)cc1", "7.5%"),
    ("CCc1nc2c(C)cc(C)nc2n1Cc1ccc(-c2cc(-n3cc(C)cn3)ccc2-c2nnn[nH]2)cc1", "21.8%"),
    ("CCc1nc2c(C)cc(C)nc2n1Cc1ccc(-c2cc(-c3cccc(C)c3)ccc2C(=O)O)nc1", "34.9%"),
    ("CCc1nc2c(C)cc(C)nc2n1Cc1ccc(-c2cc(-c3ccccc3)ccc2-c2nnn[nH]2)cn1", "12.2%"),
]

**Query** Sample `CCc1nc2c(C)cc(C)nc2n1Cc1ccc(-c2cc(-c3cn(CCO)nn3)ccc2-c2nnn[nH]2)cc1` — what was its IP-1 Ymax (%)?
**Result** 14.9%

**Query** Similarly, `CCc1nc2c(C)cc(C)nc2n1Cc1ccc(-c2cc(-n3nnc4ccccc43)ccc2-c2nnn[nH]2)cc1` ?
**Result** 10.2%

**Query** Similarly, `CCc1nc2c(C)cc(C)nc2n1Cc1ccc(-c2cc(N3CCCC3=O)ccc2-c2nn[nH]n2)cc1` ?
**Result** 2.3%

**Query** Similarly, `CCc1nc2c(C)cc(C)nc2n1Cc1ccc(-c2cc(N3CCC(F)(F)C3)ccc2-c2nn[nH]n2)cc1` ?
**Result** 3.7%
